Assay: Sulfonation of 7-hydroxycoumarin derivatives by mouse liver cytosol
Conditions: DBA/2N/Kuo, mouse, liver cytosol, pH 7.4
Field: Km. Provide a value for each of the molecules that follow.
Numbers only, in µM.

Answered examples (2):
>>> recorded_number("CCc1c(C)c2ccc(O)cc2oc1=O [compound 5, 3-ethyl-4-methyl-7-hydroxycoumarin]")
0.11
>>> recorded_number("CCc1c(C)c2ccc(O)c(C)c2oc1=O [compound 6, 3-ethyl-4,8-dimethyl-7-hydroxycoumarin]")
0.14

Okay, next one:
Dear colleague, I am looking for the recorded Km of the following molecule: Cc1c(C)c2ccc(O)c(C)c2oc1=O [compound 7, 3,4,8-trimethyl-7-hydroxycoumarin] 0.11

====

Assay: Sulfonation of 7-hydroxycoumarin derivatives by dog liver cytosol
Details: both, Beagle, dog, liver cytosol, pH 7.4
measured_attribute: log10 Km (log10 of the value in µM)
Record value = log10 of Km given in µM.

Answered examples (5):
>>> recorded_number("Cc1c(C)c2ccc(O)c(C)c2oc1=O [compound 7, 3,4,8-trimethyl-7-hydroxycoumarin]")
0.63
>>> recorded_number("O=c1oc2cc(O)ccc2cc1-c1ccc(O)cc1 [compound 9, 3-(4-hydroxyphenyl)-7-hydroxycoumarin]")
-1.29
>>> recorded_number("CN(C)c1ccc(-c2cc3ccc(O)cc3oc2=O)cc1")
-0.36
>>> recorded_number("COc1cc2ccc(=O)oc2cc1O [compound 3, 6-methoxy-7-hydroxycoumarin]")
-0.66
>>> recorded_number("O=c1ccc2ccc(O)cc2o1 [compound 1, 7-hydroxycoumarin, reference compound]")
-0.57

Below is a list of compounds. For each, state its recorded log10 Km.
1. CCc1c(C)c2ccc(O)cc2oc1=O [compound 5, 3-ethyl-4-methyl-7-hydroxycoumarin]
2. Cc1ccc(-c2cc3ccc(O)cc3oc2=O)cc1 [compound 8, 3-(4-methylphenyl)-7-hydroxycoumarin]
3. CCc1c(C)c2ccc(O)c(C)c2oc1=O [compound 6, 3-ethyl-4,8-dimethyl-7-hydroxycoumarin]

[-0.35, -0.77, -0.42]

====

Field: Km. Provide a value for each of the compounds that follow.
Tested on: mouse liver cytosol
Conditions: pH 7.4
Numbers only, in µM.

>>> recorded_number("O=c1oc2cc(O)ccc2cc1-c1cccnc1 [compound 13, 3-(4-pyridin-3-yl)-7-hydroxycoumarin]")
4.3

Okay, next one:
Dear colleague, I am looking for the recorded Km of the following compound: `O=c1oc2cc(O)ccc2cc1-n1cncn1` 4.9

====

Experiment: Sulfonation of 7-hydroxycoumarin derivatives by pig liver cytosol
Conditions: female, pig, liver cytosol, pH 7.4
Please note: rule met applies when Km is 2 µM or greater, and rule not met applies otherwise.

Below are worked cases with known answers.
>>> answer_label("CN(C)c1ccc(-c2cc3ccc(O)cc3oc2=O)cc1")
"rule met"
>>> answer_label("O=c1ccc2ccc(O)cc2o1 [compound 1, 7-hydroxycoumarin, reference compound]")
"rule met"

For this compound, is measured Km 2 µM or higher? Cc1c(C)c2ccc(O)c(C)c2oc1=O [compound 7, 3,4,8-trimethyl-7-hydroxycoumarin] rule met

Okay, and Cc1ccc(-c2cc3ccc(O)cc3oc2=O)cc1 [compound 8, 3-(4-methylphenyl)-7-hydroxycoumarin] ? rule met

Okay, and CCc1c(C)c2ccc(O)c(C)c2oc1=O [compound 6, 3-ethyl-4,8-dimethyl-7-hydroxycoumarin] ? rule not met

Okay, and CCc1c(C)c2ccc(O)cc2oc1=O [compound 5, 3-ethyl-4-methyl-7-hydroxycoumarin] ? rule not met

Okay, and COc1cc2ccc(=O)oc2cc1O [compound 3, 6-methoxy-7-hydroxycoumarin] ? rule not met
